# Tested on: spontaneous murine B-cell lymphoma
# measurementProtocol: Cytotoxicity: lymphoma cells with no stromal support
# statedConditions: read-out: cytotoxicity IC50, Murine BCL, spontaneous CD19+
endpointName: IC50 (nM)

smilesentry=COc1cccc2c1C(=O)c1c(O)c3c(c(O)c1C2=O)C[C@@](O)(C(=O)CO)C[C@@H]3O[C@H]1C[C@H](N)[C@H](O)[C@H](C)O1 endpointname=IC50 observedvalue=124

###

# Tested on: RH30
# measurementProtocol: Cytotoxicity: Rhabdomyosarcoma (Alveolar type)
# statedConditions: Homo sapiens, Rh30, read-out: cytotoxic activity (IC50)
endpointName: IC50 (nM)

smilesentry=N[C@@H](Cc1ccc(N(CCCl)CCCl)cc1)C(=O)O targetdesc=RH30 endpointname=IC50 observedvalue=20
